# Test Description: Cmax in HIV1 infected human at 5 mg after 24 hrs presence of 400 mg of Lopinavir and 100 mg of itonavir
# Format: ADME, organism-based
# Parameters: dose 5 mg
# Study Conditions: in vivo
Assay Endpoint: Cmax (ng/mL)

test_smiles=Nc1nc(=O)n([C@@H]2C=C[C@H](CO)O2)cc1F assay_endpoint=Cmax observed=7.25

----------
# Test Description: Volume of distribution at steady state with respect to the bioavailability in HIV1 infected human at 20 mg administered once every 48 hrs for 21 days in presence of 400 mg of Lopinavir and 100 mg of itonavir administered once every 12 hrs
# Format: ADME, organism-based
# Study Conditions: in vivo, read-out: Vss/F
Assay Endpoint: Vd/F (L)

test_smiles=Nc1nc(=O)n([C@@H]2C=C[C@H](CO)O2)cc1F assay_endpoint=Vd/F observed=1620

----------
# Test Description: Drug level in HIV1 infected human plasma at 10 mg qd for 21 days in presence of 400 mg of Lopinavir and 100 mg of itonavir administered once every 12 hrs
# Format: ADME, organism-based
# Study Conditions: read-out: Drug uptake
Assay Endpoint: concentration at 21 days (ng/mL)

test_smiles=Nc1nc(=O)n([C@@H]2C=C[C@H](CO)O2)cc1F unit_string=ng/mL observed=9.7

----------
# Test Description: AUC (0 to 24 hrs) in HIV1 infected human at 20 mg administered once every 48 hrs for 21 days in presence of 400 mg of Lopinavir and 100 mg of itonavir administered once every 12 hrs
# Type: ADME, organism-based
# Parameters: dose 20 mg, time < 24 hr
# Study Conditions: plasma
Assay Endpoint: AUC at 24 h (ng·h/mL)

test_smiles=Nc1nc(=O)n([C@@H]2C=C[C@H](CO)O2)cc1F assay_endpoint="AUC at 24 h" observed=749

----------
# Test Description: AUC (0 to 24 hrs) in HIV1 infected human at 10 mg after 24 hrs presence of 400 mg of Lopinavir and 100 mg of itonavir
# Assay type: ADME, organism-based
# Design: time < 24 hr, dose 10 mg
# Study Conditions: plasma
Assay Endpoint: AUC(0-t) at 24 h (ng·h/mL)

test_smiles=Nc1nc(=O)n([C@@H]2C=C[C@H](CO)O2)cc1F observed=155

----------
# Test Description: AUC (0 to 24 hrs) in HIV1 infected human at 5 mg after 24 hrs presence of 400 mg of Lopinavir and 100 mg of itonavir
# Assay type: ADME, organism-based
# Design: time < 24 hr, dose 5 mg
# Study Conditions: plasma
Assay Endpoint: AUC(0-t) at 24 h (ng·h/mL)

test_smiles=Nc1nc(=O)n([C@@H]2C=C[C@H](CO)O2)cc1F observed=59.9

----------
# Test Description: Cmax in HIV1 infected human at 10 mg qd for 21 days in presence of 400 mg of Lopinavir and 100 mg of itonavir administered once every 12 hrs
# Format: ADME, organism-based
# Parameters: dose 10 mg
# Study Conditions: in vivo
Assay Endpoint: Cmax

test_smiles=Nc1nc(=O)n([C@@H]2C=C[C@H](CO)O2)cc1F observed="49.9 ng/mL"

----------
# Test Description: Drug level in HIV1 infected human plasma at 20 mg administered once every 48 hrs for 21 days in presence of 400 mg of Lopinavir and 100 mg of itonavir administered once every 12 hrs
# Type: ADME, organism-based
# Study Conditions: read-out: Drug uptake
Assay Endpoint: concentration at 21 days (ng/mL)

test_smiles=Nc1nc(=O)n([C@@H]2C=C[C@H](CO)O2)cc1F assay_endpoint="concentration at 21 days" observed=12

The measured values listed here are drawn from ChEMBL document CHEMBL1629600.
